// values below are reported IC50
- STUDY_TARGET: mTOR PI kinase-related kinase (Homo sapiens)
- Sequence (P42345 1362-2549): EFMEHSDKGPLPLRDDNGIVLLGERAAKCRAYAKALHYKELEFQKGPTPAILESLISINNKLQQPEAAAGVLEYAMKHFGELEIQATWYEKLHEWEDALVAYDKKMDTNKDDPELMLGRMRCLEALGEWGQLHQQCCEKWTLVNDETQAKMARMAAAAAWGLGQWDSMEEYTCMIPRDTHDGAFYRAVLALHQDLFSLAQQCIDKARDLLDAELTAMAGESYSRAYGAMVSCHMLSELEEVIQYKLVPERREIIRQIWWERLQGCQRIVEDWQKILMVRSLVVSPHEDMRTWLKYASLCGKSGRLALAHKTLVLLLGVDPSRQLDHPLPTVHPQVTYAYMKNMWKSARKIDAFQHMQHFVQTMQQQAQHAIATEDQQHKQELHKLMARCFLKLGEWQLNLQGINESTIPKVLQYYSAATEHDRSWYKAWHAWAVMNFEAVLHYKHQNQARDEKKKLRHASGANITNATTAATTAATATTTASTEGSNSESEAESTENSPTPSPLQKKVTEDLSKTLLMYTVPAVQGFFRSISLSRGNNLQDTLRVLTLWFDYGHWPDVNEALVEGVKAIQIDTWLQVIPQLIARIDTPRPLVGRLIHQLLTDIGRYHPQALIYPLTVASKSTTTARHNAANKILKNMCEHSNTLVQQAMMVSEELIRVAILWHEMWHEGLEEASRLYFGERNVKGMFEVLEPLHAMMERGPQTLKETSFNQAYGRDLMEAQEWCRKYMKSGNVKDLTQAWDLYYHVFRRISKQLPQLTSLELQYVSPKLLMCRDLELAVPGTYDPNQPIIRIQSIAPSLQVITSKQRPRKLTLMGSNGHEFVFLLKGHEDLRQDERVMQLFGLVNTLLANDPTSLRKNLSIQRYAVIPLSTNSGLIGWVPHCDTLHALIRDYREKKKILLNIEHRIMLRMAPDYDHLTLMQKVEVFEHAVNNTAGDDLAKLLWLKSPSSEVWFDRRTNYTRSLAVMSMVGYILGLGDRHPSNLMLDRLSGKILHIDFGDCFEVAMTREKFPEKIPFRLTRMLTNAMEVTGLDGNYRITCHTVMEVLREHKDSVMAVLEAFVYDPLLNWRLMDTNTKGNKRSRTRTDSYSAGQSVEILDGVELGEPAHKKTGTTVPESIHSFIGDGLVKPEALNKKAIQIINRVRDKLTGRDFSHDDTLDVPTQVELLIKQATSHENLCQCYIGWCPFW
- MEASUREMENT_DESCRIPTION: In vitro mTOR PI kinase-related kinase assay (AlphaScreen), Test (b)
- ASSAY_CONDITIONS: recombinant mTOR (1362-2549), ATP 20 μM, read-out: IC50 versus mTOR PI kinase-related kinase

I would be grateful if you could share the reported IC50 for CC(=O)Nc1cc(-c2cncc(NS(=O)(=O)c3c(C)nn(C)c3Cl)c2)n(C)n1 .
~2 µM

Try CC(=O)Nc1cc(-c2cncc(NS(C)(=O)=O)c2)n(C)n1 next.
~40 µM
